tested-target: T1, UNK ZnF1-3 (human, UniProt Q9C0B0 31-174)
T1 sequence: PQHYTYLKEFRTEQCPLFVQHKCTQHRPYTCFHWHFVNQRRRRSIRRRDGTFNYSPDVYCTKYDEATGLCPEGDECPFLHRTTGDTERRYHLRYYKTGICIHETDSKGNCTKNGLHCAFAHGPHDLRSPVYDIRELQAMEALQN
experiment: nsRBNS (natural sequence RNA bind-n-seq); RBNS binding buffer (assumed for nsRBNS): 25 mM Tris pH 7.5, 150 mM KCl, 3 mM MgCl2, 0.01% Triton X-100, 500 ug/ml BSA, 20 U/ml SUPERase-In, 4 C; UNK is unkempt and MSI1 is Musashi-1; names of the RNAs are library labels; protein concentration not given here; high values mean tight binding
The full ranking holds about 24,000 sequences; the median of “enrichment r” is about 0.99, and the highest 2% start at about 3.7. The full list was thinned out, with the highest values kept by preference.
measure: binding signal (enrichment R)
Answers are plain numbers, in enrichment R.

Example results:
binder	binding signal (enrichment R)
chr1:60041781:60041782:+_ENSMUSG00000041040_ENSMUST00000036540|mus_hu|mus_mus_mus_hu_False|1_38 (ssRNA) RNA: GGGAGUUCUACAGUCCGACGAUCAAGUUUACAAUAGUAAAGUAAAUGCAGUAGUGGCAAAUUUUCUUUUAUUUUCCUUCACAAAAGAAAAUCUUUAGAUCUCAGUUCUAGUCUUGGACAUAGUGAAAGCUAUAAAUGCCACUGCAACAGAGGAUUGAGCAUCA	0.52
chrX:71549400:71549401:+_ENSMUSG00000019087_ENSMUST00000019231|mus_hu|mus_mus_mus_hu_False|28_98 (ssRNA) RNA: GGGAGUUCUACAGUCCGACGAUCGCAGUAGGAAGAGCAAACCUUUCCAGUCCAGUGCGCUGCAGGGUGGGAAAGCAACAACACGGACACCGUCCCACCCUCAACCCUCUCAGGUGUACAGGGUCACACAAUCUGGGUCAAAGACAACAGAGGAUUGAGCAUCA	0.931

The record that follows has no binding signal shown yet.
query: Bench note: what binding signal did 105048333_105048453_1516_3pUTR_ENSG00000148798_ENST00000369849|human|control|control (ssRNA) RNA: GGGAGUUCUACAGUCCGACGAUCAGCAUUAACUUUUUCAAAGCAAUGGAAUUAUAUUUUUUGGCUUGAAAUGGUGGUUUCUUCUAUAUUUGAUUUCUCGGUUUUCUUAGUAGAUAUUACUGUCUCCUCUAAUAUUUCUUCAAACAACAGAGGAUUGAGCAUCA show?
result: 4.33
